All values here come from patent US6337348B1.

Kindly supply the reported JC-1 aggregate-positive sperm (%) values for the records listed here.
# Test system: human sperm
# procedureDetails: Mitochondrial transmembrane potential (JC-1 dye) flow cytometry
# Assay type: cell-based
# conditionParameters: 100 μM, 3 hours, 37° C.
The figure you give is taken to be in %; do not add the unit.

stdin: Form field: reported JC-1 aggregate-positive sperm (%) of Clc1cc2cccnc2c2ncccc12.O.O.O=S(=O)([O-])[O-].[O]=[V+2] [VO(Cl-phen)]
stdout: 39

stdin: Form field: reported JC-1 aggregate-positive sperm (%) of O.O.O=S(=O)([O-])[O-].[O]=[V+2].c1cnc2c(c1)ccc1cccnc12 [VO(phen)]
stdout: 35

stdin: Form field: reported JC-1 aggregate-positive sperm (%) of Clc1cc2cccnc2c2ncccc12.Clc1cc2cccnc2c2ncccc12.O.O=S(=O)([O-])[O-].[O]=[V+2] [VO(Cl-phen)2]
stdout: 35

stdin: Form field: reported JC-1 aggregate-positive sperm (%) of O.O=S(=O)([O-])[O-].[O]=[V+2].c1cnc2c(c1)ccc1cccnc12.c1cnc2c(c1)ccc1cccnc12 [VO(phen)2]
stdout: 25

stdin: Form field: reported JC-1 aggregate-positive sperm (%) of O.O.O=S(=O)([O-])[O-].[O]=[V+2].c1ccc(-c2ccccn2)nc1 [VO(bipy)]
stdout: 95

stdin: Form field: reported JC-1 aggregate-positive sperm (%) of Cc1ccnc2c1ccc1c(C)ccnc12.Cc1ccnc2c1ccc1c(C)ccnc12.O.O=S(=O)([O-])[O-].[O-2].[V+4] [VO(Me2-phen)2]
stdout: 63

stdin: Form field: reported JC-1 aggregate-positive sperm (%) of O.O=S(=O)([O-])[O-].[O-2].[V+4].c1ccc(-c2ccccn2)nc1.c1ccc(-c2ccccn2)nc1 [VO(bipy)2]
stdout: 94

stdin: Form field: reported JC-1 aggregate-positive sperm (%) of Cc1ccnc2c1ccc1c(C)ccnc12.O.O.O=S(=O)([O-])[O-].[O]=[V+2] [VO(Me2-phen)]
stdout: 38

====

# System: human sperm
# procedureDetails: FITC-Annexin V surface binding flow cytometry
# Assay type: cell-based
# conditionParameters: 100 μM, 12 hours, 37° C.
// boundary case: Annexin V positive sperm (%) equal to 90% maps to rule not met; strictly smaller maps to rule met

stdin: Determine if O.O=S(=O)([O-])[O-].[O]=[V+2].c1cnc2c(c1)ccc1cccnc12.c1cnc2c(c1)ccc1cccnc12 shows Annexin V positive sperm (%) strictly lower than 90%.
stdout: rule not met

stdin: Determine if O.O.O=S(=O)([O-])[O-].[O]=[V+2].c1cnc2c(c1)ccc1cccnc12 shows Annexin V positive sperm (%) strictly lower than 90%.
stdout: rule not met

stdin: Determine if Clc1cc2cccnc2c2ncccc12.Clc1cc2cccnc2c2ncccc12.O.O=S(=O)([O-])[O-].[O]=[V+2] shows Annexin V positive sperm (%) strictly lower than 90%.
stdout: rule not met

stdin: Determine if Cc1ccnc2c1ccc1c(C)ccnc12.O.O.O=S(=O)([O-])[O-].[O]=[V+2] shows Annexin V positive sperm (%) strictly lower than 90%.
stdout: rule not met

stdin: Determine if Cc1ccnc2c1ccc1c(C)ccnc12.Cc1ccnc2c1ccc1c(C)ccnc12.O.O=S(=O)([O-])[O-].[O-2].[V+4] shows Annexin V positive sperm (%) strictly lower than 90%.
stdout: rule met

stdin: Determine if O.O.O=S(=O)([O-])[O-].[O]=[V+2].c1ccc(-c2ccccn2)nc1 shows Annexin V positive sperm (%) strictly lower than 90%.
stdout: rule met

stdin: Determine if O.O=S(=O)([O-])[O-].[O-2].[V+4].c1ccc(-c2ccccn2)nc1.c1ccc(-c2ccccn2)nc1 shows Annexin V positive sperm (%) strictly lower than 90%.
stdout: rule met
